- protocol: gradient 5% acetonitrile 3 min, to 50% in 2 min, to 85% in 15 min, held 3 min, 100 µL/min
- measurement-conditions: column: Zorbax Extend-C18 2.1 x 50 mm; eluents: water / acetonitrile, 0.1% formic acid
I'd be grateful if you could share measured RP-LC retention time for these entries.
Write it as a number; the unit s goes unstated.

Read off the recorded RP-LC retention time for CC(C)NC(=O)c1ccc(OCC2CCCN(C(=O)c3ccc(F)c(Cl)c3)C2)cc1 (centres undefined)
915

Read off the recorded RP-LC retention time for O=C(NCc1ccc(F)cc1F)C1=C2CCCN2c2ccc(F)cc2S1(=O)=O
895

Read off the recorded RP-LC retention time for O=C1NCCCCCCN(C(=O)c2cnccn2)[C@H]2CCCC[C@@H]12
684

Read off the recorded RP-LC retention time for CCCN1CCN(C(=O)c2csc(N3CCN(c4ccc(OC)cc4)CC3)n2)CC1
626

Read off the recorded RP-LC retention time for COc1cccc(CNC(=O)Nc2ccc(-c3nc(-c4ccc(C)cc4C)co3)cc2)c1
1170

Read off the recorded RP-LC retention time for CC1CCN(C(=O)C2CCN(c3nc4ccc(-c5ccccc5F)nc4s3)CC2)CC1
1170

Read off the recorded RP-LC retention time for CCCn1c(=O)sc2cc(S(=O)(=O)N3CCC(C(=O)NCc4ccccc4)CC3)ccc21
932

Read off the recorded RP-LC retention time for Cc1ccc(-c2ncc3c(=O)n(Cc4ccc(Cl)cc4)c(=O)n(C)c3n2)cc1
1360

Read off the recorded RP-LC retention time for O=C(Cn1nc(C(=O)N2CCCC2)c2ccccc21)N1CCN(c2cccc(C(F)(F)F)c2)CC1
983

Read off the recorded RP-LC retention time for CN1CCN(C(CNS(=O)(=O)c2cc(F)ccc2F)c2cccn2C)CC1 (centres undefined)
580

Read off the recorded RP-LC retention time for O=S(=O)(NCc1ccc2c(c1)OCO2)N1CCOCC1
677

Read off the recorded RP-LC retention time for O=C(Nc1nccs1)c1ccccc1OCc1nc(-c2ccccc2)no1
953

Read off the recorded RP-LC retention time for COc1ccc(S(=O)(=O)Nc2ccccc2C(=O)Nc2ccc3c(c2)OCCO3)cc1
880

Read off the recorded RP-LC retention time for O=c1ccc(-c2nc(-c3ccncc3)no2)nn1Cc1cccc(Br)c1
919

Read off the recorded RP-LC retention time for Cc1nnc2cc(N3CCN(Cc4cn[nH]c4-c4ccccc4)CC3)cnn12
556

Read off the recorded RP-LC retention time for O=C(Cn1nc2n(c1=O)CCCC2)N1CCN(c2ccccc2F)CC1
679

Read off the recorded RP-LC retention time for CCCN(CCC)S(=O)(=O)c1ccc(C)cc1
1200

Read off the recorded RP-LC retention time for CCOC(=O)c1cnc2c(-c3cccc(Cl)c3)c(COC)nn2c1N
1150

Read off the recorded RP-LC retention time for COc1ccc(-c2ccnn2-c2ccc(SCc3cccc(C)c3)nn2)cc1
1400

Read off the recorded RP-LC retention time for CCOC(=O)CNC(=O)N1CCCN(C2=NS(=O)(=O)C(c3ccc(C)cc3)=C2C)CC1
743

Read off the recorded RP-LC retention time for Cc1nnc(N2CCCC(C(=O)N3CCC4(CC3)OCCO4)C2)c2nn(-c3ccccc3)c(C)c12 (centres undefined)
660

Read off the recorded RP-LC retention time for CC(C)c1c(C2CCN(C(=O)c3cc(F)ccc3F)CC2)noc1N
774

Read off the recorded RP-LC retention time for CC(C)C(=O)N1CCN(c2nc(CN3CCOCC3)cs2)CC1
569

Read off the recorded RP-LC retention time for CC(C)c1ccc(NC(=O)C2CCN(S(=O)(=O)c3ccc4c(c3)CCCC(=O)N4)CC2)cc1
883

Read off the recorded RP-LC retention time for COc1cc(NC(=O)CN2C(=O)C(O)(c3cccc(F)c3)c3ccccc32)cc(OC)c1 (centres undefined)
894

Read off the recorded RP-LC retention time for CCOc1ccc(S(=O)(=O)N2CCC(C(=O)Nc3ccc(OC)cc3OC)CC2)cc1C
1010

Read off the recorded RP-LC retention time for COc1cc(C(=O)Nc2nc3ccc4nc(SC)sc4c3s2)cc(OC)c1OC
1080

Read off the recorded RP-LC retention time for CCCc1noc(-c2ccc(-n3ncc(C(=O)NCC)c3C)nc2)n1
808

Read off the recorded RP-LC retention time for CCN1C(=O)c2cccnc2Sc2cc(NC(=O)c3ccc(Cl)cc3)ccc21
907
